experiment: protein stability index of a GFP-peptide fusion (yeast GPS) (PSI 1-4); higher = more stable; sorted into four equal gates, so the index is relative within each strain; conditions: ubr1∆
Outcome label depends on protein stability index relative to 3: at/above gives MET, below gives NOT MET.

Here's what some known entries look like.
>>> discrete_label("VEWNDQVEKLGKKMEAR [RPN9]")
"MET"
>>> discrete_label("ELVRLLIIDEIHLLHDD [BRR2]")
"NOT MET"

// query Would you say ANSQIQAYEEIISSNEN [YIL149C/MLP2] shows protein stability index at minimum 3?
// result MET

// query Textbook exercise: given the entry RITKSNEKSQAEQEKAK [LRP1] , state whether its protein stability index is greater than or equal to 3.
// result NOT MET

----------
test: protein stability index of a GFP-peptide fusion (yeast GPS) (PSI 1-4); higher = more stable; sorted into four equal gates, so the index is relative within each strain; settings: pdr5∆
Provide the reported protein stability index of each item.
Give bare numbers.

Here's what some known entries look like.
>>> value_reported("GNQQQQLQQQPQMQCAL [YGL172W/NUP49]")
2.66
>>> value_reported("PASKQGYLITPPKHTEL [SSN2]")
3.31
>>> value_reported("KQQPTMQANKLDSQETP [SWI3]")
2.98
>>> value_reported("NNTLSRYADAGNIDTKN [RRP43]")
3.21
>>> value_reported("KAKSHFTNIISRNKALE [YJL039C/NUP192]")
2.01

Would you be so kind as to report protein stability index for each listed record?
1. VTKETVHPRKSYKMNSS [PRP8]
2. TQVNILKENNAILQKSL [YIL149C/MLP2]
3. HIAHTLPEKVNFRTMQQ [SSN2]
4. TARINNRRLFKKCIDFF [RRI2]

// result
[3.02, 2.55, 2.92, 2.18]

----------
Task for the reader: assign each of the following sequences its reported protein stability index.
assay: protein stability index of a GFP-peptide fusion (yeast GPS) (PSI 1-4); higher = more stable; sorted into four equal gates, so the index is relative within each strain; details: doa10∆
One number for each entry.

>>> value_reported("AQAWINLGEYYAQIGDK [RPN7]")
2.41
>>> value_reported("FPRNGKAPEAEQVLSAA [RPL13A]")
3.14
>>> value_reported("EPDRDENWIHVSCLSFM [LIN1]")
3.12
>>> value_reported("NTFTWNHSLQHQNESSA [RPN4]")
3.08

Report protein stability index for each item below.
1. VGFGESNFTSIIGPNGS [SMC1]
2. KKLSINSAARNIQHLLY [PRE7]
3. DHQHILRKLKKMNNKPE [RPC53]
4. EFSEHTFVERLPNETIN [DIS3]

// result
3.37
2.68
1.87
3.34

Batch request: protein stability index for each of the following sequences.
1. RHIKSKHEDLSLEQRQE [RPN4]
2. LPHITQLEGFESRKAFF [RPB2]
3. KAEVTQLSNGIVVATEH [COR1]
4. SEGFEPTFSTHAQLLLS [PRP8]
5. NVKNDVSFNDSQSMVTN [YIL149C/MLP2]
6. DQVLVKGGEQISQLYSD [YJL041W/NSP1]
7. SAAASESDVAKQLASFG [RPL16B]
8. EKKLEDYCRILSDIETA [YGL172W/NUP49]

// result
[2.97, 2.92, 2.58, 1.96, 3.1, 3.18, 2.76, 1.75]

Hi, could you look up protein stability index for each item in my list?
1. RGVTKVGFGESNFTSII [SMC1]
2. RENVKSKDEPVSKAVES [SIR4]
3. SDPVCLFVCNKDPDVPL [POP3]
4. WRAIIKAIFPNTVDGDL [FAS1]
5. KSITLKGRNNESNNKKY [YDL088C/ASM4]

// result
1. 3.56
2. 3.58
3. 1.91
4. 2.58
5. 3.19
